Run Conditions: Ebola virus entry assay, green fluorescence channel; note: 0% is about no effect
Potency and affinity values are given separately.
Test Readout: efficacy (%)

| Molecule | Test Readout | Unit Label | Test Value |
| --- | --- | --- | --- |
| CO[C@@H]1[C@@H](OC)[C@H](C)[C@@](O)(CC(=O)O)O[C@H]1[C@H](C)[C@H]1O[C@@]2(CC[C@@](C)([C@H]3CC[C@@](C)([C@@H]4O[C@@H]([C@H]5O[C@](C)(O)[C@H](C)C[C@@H]5C)C[C@@H]4OC4C[C@H](OC)[C@@H](OC)[C@H](C)O4)O3)O2)C[C@H](O)[C@H]1C (some centres not stated) | efficacy | % | -69.9 |
| O=C(OCC(O)CO)c1ccccc1Nc1ccnc2cc(Cl)ccc12 (configuration not stated) | efficacy | % | 41.9 |
| O=c1cc(CO)occ1O | efficacy | % | 16.7 |
| O=C(CCCCl)c1ccc(F)cc1 | efficacy | % | 36.2 |
| NC(=O)OCCCc1ccccc1 | efficacy | % | 24.7 |
| CO/N=C(/C(=O)N[C@@H]1C(=O)N2C(C(=O)O)=C(Cn3nnc(C)n3)CS[C@H]12)c1csc(N)n1 | efficacy | % | 14.5 |
| N[C@H](Cc1c[nH]c2ccccc12)C(=O)O | efficacy | % | 29.9 |
| CCC(=O)c1ccc(O)cc1 | efficacy | % | -30 |
| CCc1oc2ccccc2c1C(=O)c1cc(Br)c(O)c(Br)c1 | efficacy | % | 16.5 |
| O=C(O)CP(=O)(O)O | efficacy | % | -15.3 |
| C[C@H](N)[C@H](O)c1ccc(O)c(O)c1 | efficacy | % | 56.6 |
| C[C@]12CC[C@@H]3c4ccc(O)cc4CC[C@H]3[C@@H]1CC[C@@H]2OC(=O)CCC1CCCC1 | efficacy | % | 23.9 |
| Clc1ccc(Nc2nnc(Cc3ccncc3)c3ccccc23)cc1 | efficacy | % | -25.3 |
| CC(=O)N1C[C@H](O)C[C@H]1C(=O)O | efficacy | % | 24.5 |
| CCOCCn1c(N2CCCN(C)CC2)nc2ccccc21 | efficacy | % | 58.4 |
| CCCCC(=O)O[C@]1(C(=O)CO)CC[C@H]2[C@@H]3CCC4=CC(=O)CC[C@]4(C)[C@H]3[C@@H](O)C[C@@]21C | efficacy | % | 66.7 |
| CCOC(=O)c1ccc(C#Cc2ccc3c(c2)C(C)(C)CCS3)nc1 | efficacy | % | 24 |
| Nc1ccncc1N | efficacy | % | -16.5 |
| COc1cc2[nH]c(=O)[nH]c(=O)c2cc1OC | efficacy | % | 23.8 |
| O=C(CCCCCCCCC#CI)Oc1ccccc1 | efficacy | % | -20.5 |
| CC(C)(C)c1ccc(C(=O)CCCN2CCC(OC(c3ccccc3)c3ccccc3)CC2)cc1 | efficacy | % | 47.5 |
| O=C(O)/C=C/c1ccc(Cn2ccnc2)cc1 | efficacy | % | -14.9 |
